targetOrTestSystem: Sodium-dependent noradrenaline transporter (Homo sapiens, UniProt P23975)
Sequence (P23975 whole entry): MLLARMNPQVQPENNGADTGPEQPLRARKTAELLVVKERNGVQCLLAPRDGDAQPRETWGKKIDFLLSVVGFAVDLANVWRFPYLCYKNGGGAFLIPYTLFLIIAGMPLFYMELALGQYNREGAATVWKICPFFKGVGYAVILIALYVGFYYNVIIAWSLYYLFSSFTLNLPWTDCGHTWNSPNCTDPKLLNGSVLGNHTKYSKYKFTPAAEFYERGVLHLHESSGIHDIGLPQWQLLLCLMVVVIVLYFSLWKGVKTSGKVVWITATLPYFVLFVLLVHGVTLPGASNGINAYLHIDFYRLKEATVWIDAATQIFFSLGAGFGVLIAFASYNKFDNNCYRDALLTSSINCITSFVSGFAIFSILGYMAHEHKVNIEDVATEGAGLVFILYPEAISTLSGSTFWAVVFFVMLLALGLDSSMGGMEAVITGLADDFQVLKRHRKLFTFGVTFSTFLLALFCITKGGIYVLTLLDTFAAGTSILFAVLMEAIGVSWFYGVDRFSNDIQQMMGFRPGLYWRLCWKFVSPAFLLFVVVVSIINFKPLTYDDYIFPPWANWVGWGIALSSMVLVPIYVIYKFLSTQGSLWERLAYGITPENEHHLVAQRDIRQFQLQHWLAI
experiment: ChEBML_1661745
Description: Inhibition of [3H]mazindol binding to recombinant human NET expressed in HEK293 cell membranes preincubated for 10 mins followed by radioligand addition measured after 90 mins by micro beta scintillation counting analysis
measuredParameter: Ki (nM)
Field: numeric (nM). Do not append units.

Hey, Sodium-dependent noradrenaline transporter (Homo sapiens, UniProt P23975) data for COC(=O)[C@H]1[C@@H](c2ccc([125I])cc2)CC2CC[C@H]1N2C : Ki came out at 70

---

targetOrTestSystem: Sodium-dependent serotonin transporter (Homo sapiens)
Sequence (P31645 whole entry): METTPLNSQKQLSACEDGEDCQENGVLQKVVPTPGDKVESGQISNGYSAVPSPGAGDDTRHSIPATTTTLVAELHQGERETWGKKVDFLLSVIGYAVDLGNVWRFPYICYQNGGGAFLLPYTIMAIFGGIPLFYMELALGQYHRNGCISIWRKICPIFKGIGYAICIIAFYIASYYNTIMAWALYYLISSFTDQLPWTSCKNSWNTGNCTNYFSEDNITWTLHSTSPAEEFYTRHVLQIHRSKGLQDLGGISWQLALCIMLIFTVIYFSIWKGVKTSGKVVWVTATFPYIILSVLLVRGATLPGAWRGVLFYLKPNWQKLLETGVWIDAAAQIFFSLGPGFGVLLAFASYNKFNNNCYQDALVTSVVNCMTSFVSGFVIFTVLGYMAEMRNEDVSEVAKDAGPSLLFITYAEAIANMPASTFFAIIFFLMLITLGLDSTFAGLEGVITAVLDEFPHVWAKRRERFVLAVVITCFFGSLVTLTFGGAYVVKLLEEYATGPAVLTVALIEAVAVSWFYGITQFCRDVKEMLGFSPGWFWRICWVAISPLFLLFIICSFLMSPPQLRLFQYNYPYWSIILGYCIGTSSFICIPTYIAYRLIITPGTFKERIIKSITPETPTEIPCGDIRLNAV
experiment: Inhibition of [3H]mazindol binding to recombinant human SERT expressed in HEK293 cell membranes preincubated for 10 mins followed by radioligand addition measured after 90 mins by micro beta scintillation counting analysis
Quick list: pKi per entry.
On this scale, pKi is minus log10 of a concentration expressed in M (mol/L).

>>> df
                                   compound   val
0  O[C@]1(c2ccc(Cl)cc2)c2ccccc2C2=NCCN21 [Mazanor]  7.35

Okay, next one:
Please fill in: pKi reported for COC(=O)[C@H]1[C@@H](c2ccc([125I])cc2)CC2CC[C@H]1N2C = 8.89

Where do these numbers come from? They come from BindingDB's records for doi:10.1021/acs.jmedchem.7b00141.
